Origin of values: paper PMC10041525

Below: a set of entries, each annotated with reported Percentage S.
# Tested on: 100 A. baumannii strains (50 MDR, 50 non-MDR)
# Assay procedure: MIC broth microdilution at IHMA Europe, panel of 100 strains
# Assay type: cell-based
# Details: non-MDR n = 50
Entry rule: numbers only, all in %.

Below are worked cases with known answers.
>  <Compound>
C[C@@H](O)[C@H]1C(=O)N2C(C(=O)O)=C(S[C@@H]3CN[C@H](C(=O)N(C)C)C3)[C@H](C)[C@H]12 [Meropenem, meropenem]

>  <System under test>
100 A. baumannii strains (50 MDR, 50 non-MDR)

>  <Percentage S / %>
100

$$$$
>  <Compound>
C[C@H]1COc2c(N3CCN(C)CC3)c(F)cc3c(=O)c(C(=O)O)cn1c23.C[C@H]1COc2c(N3CCN(C)CC3)c(F)cc3c(=O)c(C(=O)O)cn1c23.O [Levofloxacin, levofloxacin]

>  <System under test>
100 A. baumannii strains (50 MDR, 50 non-MDR)

>  <Percentage S / %>
100

$$$$
>  <Compound>
C[C@@H](O)[C@H]1C(=O)N2C(C(=O)O)=C(SCCNC=N)C[C@H]12 [Imipenem, imipenem]

>  <System under test>
100 A. baumannii strains (50 MDR, 50 non-MDR)

>  <Percentage S / %>
100

$$$$

Next, consider the following compound.
*Q* Reported Percentage S for 100 A. baumannii strains (50 MDR, 50 non-MDR), given O=C(O)c1cn(C2CC2)c2cc(N3CCNCC3)c(F)cc2c1=O [ciprofloxacin] ?
*A* 98

* * *

Measured IC50 by item
# System under test: topo IV from E. coli (Escherichia coli)
# Construct: purchased Inspiralis
# Sequence (P0AFI2 whole entry): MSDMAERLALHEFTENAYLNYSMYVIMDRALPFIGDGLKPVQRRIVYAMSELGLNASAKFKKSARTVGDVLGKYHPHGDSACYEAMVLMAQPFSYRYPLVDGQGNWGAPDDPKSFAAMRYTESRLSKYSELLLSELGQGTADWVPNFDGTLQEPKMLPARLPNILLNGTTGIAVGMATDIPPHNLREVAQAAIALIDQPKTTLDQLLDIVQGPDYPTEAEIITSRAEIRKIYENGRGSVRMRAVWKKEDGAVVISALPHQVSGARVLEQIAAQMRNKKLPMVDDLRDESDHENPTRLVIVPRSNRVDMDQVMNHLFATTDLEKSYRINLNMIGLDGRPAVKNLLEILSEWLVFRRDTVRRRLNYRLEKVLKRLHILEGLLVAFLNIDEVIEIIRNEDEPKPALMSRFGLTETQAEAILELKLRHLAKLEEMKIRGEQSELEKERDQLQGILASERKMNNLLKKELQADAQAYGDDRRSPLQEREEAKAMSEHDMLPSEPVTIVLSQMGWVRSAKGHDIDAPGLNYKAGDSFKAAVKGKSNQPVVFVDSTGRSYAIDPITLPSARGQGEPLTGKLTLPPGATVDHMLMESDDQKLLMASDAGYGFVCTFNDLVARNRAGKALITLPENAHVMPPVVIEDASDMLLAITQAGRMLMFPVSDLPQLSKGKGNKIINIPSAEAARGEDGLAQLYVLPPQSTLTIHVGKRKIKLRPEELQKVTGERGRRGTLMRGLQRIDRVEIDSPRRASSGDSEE
# Sequence (P20083 whole entry): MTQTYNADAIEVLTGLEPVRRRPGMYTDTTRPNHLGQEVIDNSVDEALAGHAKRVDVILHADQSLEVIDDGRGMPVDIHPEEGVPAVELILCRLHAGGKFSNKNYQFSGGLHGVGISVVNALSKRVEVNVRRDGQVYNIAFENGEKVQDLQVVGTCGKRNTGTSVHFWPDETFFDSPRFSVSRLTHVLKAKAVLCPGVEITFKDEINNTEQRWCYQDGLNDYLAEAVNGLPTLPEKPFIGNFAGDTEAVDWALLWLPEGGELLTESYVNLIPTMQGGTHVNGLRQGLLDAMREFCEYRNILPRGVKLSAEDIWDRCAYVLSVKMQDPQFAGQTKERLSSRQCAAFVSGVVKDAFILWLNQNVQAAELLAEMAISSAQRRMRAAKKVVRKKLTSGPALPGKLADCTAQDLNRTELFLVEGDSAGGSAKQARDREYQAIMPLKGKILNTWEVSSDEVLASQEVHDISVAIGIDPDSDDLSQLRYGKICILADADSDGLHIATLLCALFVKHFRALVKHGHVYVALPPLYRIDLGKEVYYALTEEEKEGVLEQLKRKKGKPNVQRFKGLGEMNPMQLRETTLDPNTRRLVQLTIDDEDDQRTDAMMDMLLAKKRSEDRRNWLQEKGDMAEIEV
# Assay procedure: relaxation HTS plate assay
# Type: biochemical
# Details: read-out: IC50 [nM] E. coli TopoIV
Write the answer as a number in nM, unit excluded.

>  <Compound>
Cc1[nH]c(C(=O)Nc2nc3c(N4CCOC4=O)cc(C(=O)O)cc3s2)c(Cl)c1Cl [7m]

>  <Endpoint>
IC50

>  <Unit of measurement>
nM

>  <Experimental value>
180

$$$$

Field: next compound
*Q* Report IC50 for Cc1[nH]c(C(=O)Nc2nc3c(N4CCCC4)cc(C(=O)O)cc3s2)c(Cl)c1Cl [7j] please.
*A* 68

* * *

# System under test: human DNA topoisomerase IIα (Homo sapiens, UniProt P11388)
# Construct: purchased Inspiralis
# Sequence (P11388 whole entry): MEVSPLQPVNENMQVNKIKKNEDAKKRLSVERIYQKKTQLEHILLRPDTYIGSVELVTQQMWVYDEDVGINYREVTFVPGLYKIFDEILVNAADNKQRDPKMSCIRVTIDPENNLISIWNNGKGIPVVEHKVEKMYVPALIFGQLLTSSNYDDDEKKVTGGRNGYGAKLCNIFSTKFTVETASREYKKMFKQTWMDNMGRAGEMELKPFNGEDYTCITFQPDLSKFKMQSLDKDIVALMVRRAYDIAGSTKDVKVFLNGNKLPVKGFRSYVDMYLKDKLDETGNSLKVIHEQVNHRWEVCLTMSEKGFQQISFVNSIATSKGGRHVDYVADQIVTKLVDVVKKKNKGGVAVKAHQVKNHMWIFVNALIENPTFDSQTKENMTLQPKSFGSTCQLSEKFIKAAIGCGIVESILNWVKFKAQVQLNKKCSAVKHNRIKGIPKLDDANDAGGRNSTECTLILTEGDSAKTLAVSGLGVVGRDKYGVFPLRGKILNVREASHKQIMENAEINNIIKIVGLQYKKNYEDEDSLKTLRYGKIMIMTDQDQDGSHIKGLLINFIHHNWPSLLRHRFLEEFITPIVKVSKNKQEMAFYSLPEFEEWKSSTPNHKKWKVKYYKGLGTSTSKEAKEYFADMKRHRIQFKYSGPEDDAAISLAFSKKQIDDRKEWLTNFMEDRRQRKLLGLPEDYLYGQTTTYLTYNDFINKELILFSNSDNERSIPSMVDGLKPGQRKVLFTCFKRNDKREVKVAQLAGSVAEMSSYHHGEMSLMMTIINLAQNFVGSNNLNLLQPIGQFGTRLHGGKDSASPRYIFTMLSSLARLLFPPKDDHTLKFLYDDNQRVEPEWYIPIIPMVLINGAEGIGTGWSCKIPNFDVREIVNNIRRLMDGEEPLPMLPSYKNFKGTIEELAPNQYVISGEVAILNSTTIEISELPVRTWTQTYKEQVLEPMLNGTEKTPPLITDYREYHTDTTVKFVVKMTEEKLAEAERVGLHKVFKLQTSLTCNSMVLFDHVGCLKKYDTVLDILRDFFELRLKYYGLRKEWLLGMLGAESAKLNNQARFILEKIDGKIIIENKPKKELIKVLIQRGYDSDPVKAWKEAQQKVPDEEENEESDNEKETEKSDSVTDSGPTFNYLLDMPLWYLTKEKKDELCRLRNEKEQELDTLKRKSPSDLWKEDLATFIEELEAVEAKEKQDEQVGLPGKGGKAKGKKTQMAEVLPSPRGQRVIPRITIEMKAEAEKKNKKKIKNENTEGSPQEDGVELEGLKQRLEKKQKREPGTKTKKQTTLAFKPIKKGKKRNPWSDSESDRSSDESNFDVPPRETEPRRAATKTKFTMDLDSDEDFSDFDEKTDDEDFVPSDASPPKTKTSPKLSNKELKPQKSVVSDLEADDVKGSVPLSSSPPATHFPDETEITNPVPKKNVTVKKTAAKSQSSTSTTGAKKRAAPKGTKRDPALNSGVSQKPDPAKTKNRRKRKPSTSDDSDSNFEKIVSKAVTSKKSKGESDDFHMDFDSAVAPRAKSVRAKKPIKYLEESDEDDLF
# Assay procedure: DNA relaxation assay
# Format: biochemical
Endpoint: IC50 (µM)
Write the answer as a number in µM, unit excluded.

*Q* Reported IC50 for human DNA topoisomerase IIα (Homo sapiens, UniProt P11388), given Cc1[nH]c(C(=O)Nc2nc3c(N4CCOCC4)cc(C(=O)O)cc3s2)c(Cl)c1Cl ?
*A* 17

* * *

# Test system: 100 A. baumannii strains (50 MDR, 50 non-MDR)
# Assay procedure: MIC broth microdilution at IHMA Europe, panel of 100 strains
# Format: cell-based
# Details: Acinetobacter baumannii, A. baumannii IHMA 1997936, Morocco 2019, Non-MDR; read-out: MIC
Endpoint: MIC

Worked cases, answers included:
>  <Compound>
COc1c(N2C[C@@H]3CCCN[C@@H]3C2)c(F)cc2c(=O)c(C(=O)O)cn(C3CC3)c12

>  <MIC>
≤ 0.5 µg/mL

$$$$
>  <Compound>
Cc1[nH]c(C(=O)Nc2nc3c(N4[C@@H]5CC[C@H]4COC5)cc(C(=O)O)cc3s2)c(Cl)c1Cl

>  <MIC>
2 µg/mL

$$$$
>  <Compound>
CN(C)c1cc(NC(=O)CNC(C)(C)C)c(O)c2c1C[C@H]1C[C@H]3[C@H](N(C)C)C(O)=C(C(N)=O)C(=O)[C@@]3(O)C(O)=C1C2=O

>  <MIC>
0.25 µg/mL

$$$$
>  <Compound>
C[C@@H](O)[C@H]1C(=O)N2C(C(=O)O)=C(S[C@@H]3CN[C@H](C(=O)N(C)C)C3)[C@H](C)[C@H]12

>  <MIC>
0.12 µg/mL

$$$$
>  <Compound>
CO/N=C(\C(=O)N[C@@H]1C(=O)N2C(C(=O)[O-])=C(C[N+]3(C)CCCC3)CS[C@H]12)c1csc(N)n1 [Cefepime, cefepime]

>  <MIC>
1 µg/mL

$$$$

*Q* What does the data say about its MIC? Entry: C[C@@H](O)[C@H]1C(=O)N2C(C(=O)O)=C(SCCNC=N)C[C@H]12
*A* ≤ 0.25 µg/mL
